Molecular target: mouse PDGF-β receptor tyrosine kinase (Mus musculus, UniProt P05622)
Construct: a fragment of DNA that codes for the intracellular tyrosine kinase domain; made in house; host or cells: Sf9 insect cells (baculovirus), cell lysate
Sequence (P05622 599-961 limits assumed): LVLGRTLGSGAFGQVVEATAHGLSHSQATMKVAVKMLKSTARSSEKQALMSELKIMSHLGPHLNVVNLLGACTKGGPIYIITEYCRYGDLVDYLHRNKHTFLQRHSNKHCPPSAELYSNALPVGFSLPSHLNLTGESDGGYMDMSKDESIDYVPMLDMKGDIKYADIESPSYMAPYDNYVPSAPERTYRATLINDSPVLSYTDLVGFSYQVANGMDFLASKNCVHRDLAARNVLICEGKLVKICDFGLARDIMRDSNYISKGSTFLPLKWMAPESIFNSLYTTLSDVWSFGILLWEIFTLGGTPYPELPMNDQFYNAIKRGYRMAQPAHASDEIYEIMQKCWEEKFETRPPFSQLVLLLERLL
Assay: PDGF receptor tyrosine kinase assay
Type: biochemical
Conditions: at 50 μM; read-out: Inhibition of Protein Tyrosine Kinases, PDGF, % Inhibition
measure name: inhibition at 50 µM (%)
Entry rule: numbers only, all in %.

>>> measurement("Cc1cccc(-c2cc3cnc(N)nc3nc2N)c1C [Example 92]")
33.1

Next:
## Task Which measured inhibition at 50 µM value corresponds to Cc1cc(C)c(C)c(-c2cc3cnc(NCCCN4CCN(C)CC4)nc3nc2NC(=O)NC(C)(C)C)c1C [Example 121] ?
## Result 21.8
